Assay: yeast display, Sf9 membrane polyspecificity reagent, FACS + sequencing; frameworks hold sequencing errors

chain | polyreactivity (PSR sort gate)
QVQLVESGGGLVQAGGSLRLSCAASGSTFYYYAMGCYRQAPGKERELVASITTGGGSTYYADSVKGRFTISRDNAKNTVYLQLNSLKPEDTAVYYCGAALAYYYWWYDYWGQCTQVTVSS | low polyreactivity
QVQLVESGGGLVQAGGSLRLSCAASGFTFYTYVRGWYRQAPGKERELVAAITSGVSTNYADSVKGRFTISRDNAKNTVYLQMNSLKPEDTAVYYCNKDVRPAYRWYDYWGQDTQVTVSS | low polyreactivity

---

Experiment: yeast display, Sf9 membrane polyspecificity reagent, FACS + sequencing; frameworks hold sequencing errors
quantity.name: polyreactivity (PSR sort gate)

// solved cases for polyreactivity (PSR sort gate) follow
chain | polyreactivity (PSR sort gate)
QVQLVESGGGLVQAGGSLRLSCAASGITFSRYTMGWYRQAPGKERELVAGISSRGGSTYYADSVKGRFTISRDNAKNTVYLQMNSLKPEDTAVYYCAADGEHYPWYYYWGQGTQVTVSS | high polyreactivity
QVQLVESGGGLVQAGGSLRLSCAASGSIFFSYAMGWYRQAPGKERELVATITTSGGRTRYADSVKGRFTISRDNAKNTVYLQMNSLKPEDTAVYYCAVRGHFFTYGYWGQGTQVTVSS | high polyreactivity
QVQLVESGGGLVQAGGSLRLSCAASGSIFDFNAMGWYRQVPGKERELVAAITSGGSTNYADSVKGRFTISRDNAKNTVYLQMNSLKPEDTAVYYCAARPARGASQGGYVRPWWYDYWGQGTQVTVSS | low polyreactivity
QVQLVESGGGLVQAGGSLRLSCAASGSTFVRYAMGWYRQAPGKERELVAAITWSGGITYYADSVKGRFTISRDNAKNTVYLQMNSLKPEDTAVYYCNAEQKQYEKSYDYWGQGTQVTVSS | low polyreactivity

// next entry
Record `QVQLVESGGGLVQAGGSLRLSCAASGSTYATYAMGWYRQAPGKERELVAVITRGGRTYYADSVKGRFTISRDNAKNTVYLQMNSLKPEDTAVYYCAARTLWYVIFTLHDYNYWGQGTQVTVSS` , field polyreactivity (PSR sort gate): high polyreactivity
